The measured values listed here are drawn from patent US20250188176A1.

Biological target: T1, Extracellular domain (ECD) of the canine IL-4 receptor alpha-AviTag-His Tag (canine)
T1 construct: expressed in CHO cells; also called canine IL-4RA; canine IL4Ra
T1 chain: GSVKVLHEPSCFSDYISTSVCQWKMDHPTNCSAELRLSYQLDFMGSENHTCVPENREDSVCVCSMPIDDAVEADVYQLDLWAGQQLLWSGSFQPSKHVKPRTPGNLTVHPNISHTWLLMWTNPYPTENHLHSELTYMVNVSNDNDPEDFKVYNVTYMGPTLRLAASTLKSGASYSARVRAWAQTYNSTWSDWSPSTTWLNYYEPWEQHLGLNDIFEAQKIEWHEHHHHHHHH
Experiment: SPR, IgG captured via anti-dog Fc
MEASUREMENT TYPE: kon

{"BINDER": "21188-H + 21188-L (antibody, V domains shown) VH: EVQLVESGGDLVKPGGSLRLSCVASGFTFRDYAMTWVRQAPGKGLQWLSLISGSGGKTYYADAVKGRFTISRDNAKNTLYLQMNSLRAEDTAVYYCAVDRLTKTIRPQYYGLWHWGQGTLVTVSS VL: DIVMTQTPLSLSVSPGETASISCRSSQSLTYSIGYNYLDWYMQKPGQSPQGLIYLGSKRASGVSDRFSGSGSGADFTLKISRVEADDAGVYYCMQGLQSPLGFGQGTKLEIKR", "MEASUREMENT TYPE": "kon", "TEST VALUE": "246000 M⁻¹ s⁻¹"}
{"BINDER": "FJP06D01-H + 21188-L (antibody, V domains shown) VH: EVQLVESGGDLVKPGGSLRLSCVASGFPFRDYAMDWVRQAPGKGLQWLSLISGSGGKTYYADAVKGRFTISRDNAKNTLYLQMNSLRAEDTAVYYCAVDRLTKTIRPQYYGLWVWGQGTLVTVSS VL: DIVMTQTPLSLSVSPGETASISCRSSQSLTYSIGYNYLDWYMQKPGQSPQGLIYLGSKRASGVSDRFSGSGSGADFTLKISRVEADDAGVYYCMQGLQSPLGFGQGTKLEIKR", "MEASUREMENT TYPE": "kon", "TEST VALUE": "230000 M⁻¹ s⁻¹"}
{"BINDER": "FJP05A03-H + 21188-L (antibody, V domains shown) VH: EVQLVESGGDLVKPGGSLRLSCVASGLPFRDYAMAWVRQAPGKGLQWLSLISGSGGKTYYADAVKGRFTISRDNAKNTLYLQMNSLRAEDTAVYYCAVDRLTKTIRPQYYGLWVWGQGTLVTVSS VL: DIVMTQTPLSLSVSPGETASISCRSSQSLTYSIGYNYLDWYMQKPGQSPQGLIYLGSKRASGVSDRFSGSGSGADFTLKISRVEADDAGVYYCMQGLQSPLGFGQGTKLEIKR", "MEASUREMENT TYPE": "kon", "TEST VALUE": "279000 M⁻¹ s⁻¹"}
